This collection of values is drawn from ChEMBL document CHEMBL1156107.

# Tested on: P19
# protocol description: Induction of dendrite out growth in IL-4/GMCSF-stimulated mouse P19 cells assessed as dendrite length at 100 nM after 48 hrs by light microscopy
# Type: functional
Calls of active or inactive are those of the source. The rule behind the calls is not given here.
readout kind: Activity

- compound: "CC(C)CCC[C@@H](C)[C@H]1CC[C@H]2[C@@H]3C[C@@H](NCCCNCCCCNCCCN)[C@@]4(O)C[C@@H](O)CC[C@]4(C)[C@H]3CC[C@]12C"
  reported: "10 um"
- compound: "CC(C)CCC[C@@H](C)[C@H]1CC[C@H]2[C@@H]3C[C@H]4O[C@]45C[C@@H](O)CC[C@]5(C)[C@H]3CC[C@]12C"
  reported: "inactive"
- compound: "CC(C)CCC[C@@H](C)[C@H]1CC[C@H]2[C@@H]3CC=C4C[C@@H](O)CC[C@]4(C)[C@H]3CC[C@]12C [CHOLESTEROL]"
  reported: "inactive"
- compound: "CC1=C(/C=C/C(C)=C/C=C/C(C)=C/C(=O)O)C(C)(C)CCC1 [TRETINOIN]"
  reported: "inactive"
- compound: "CC(C)CCC[C@@H](C)[C@H]1CC[C@H]2[C@@H]3C[C@@H](NCCCCNCCCN)[C@@]4(O)C[C@@H](O)CC[C@]4(C)[C@H]3CC[C@]12C"
  reported: "50 um"
- compound: "CC[C@H](CC[C@@H](C)[C@H]1CC[C@H]2[C@@H]3C[C@@H]4O[C@@]45C[C@@H](O)CC[C@]5(C)[C@H]3CC[C@]12C)C(C)C"
  reported: "inactive"
- compound: "C[C@]12CC[C@H]3[C@@H](C[C@@H]4O[C@@]45C[C@@H](O)CC[C@]35C)[C@@H]1CC[C@@H]2O"
  reported: "inactive"
- compound: "NCCCCN [PUTRESCINE]"
  reported: "inactive"
- compound: "CCCC(=O)O[C@H]1CC[C@]2(C)[C@H]3CC[C@]4(C)[C@@H]([C@H](C)CCCC(C)C)CC[C@H]4[C@@H]3C[C@@H]3O[C@@]32C1"
  reported: "inactive"
- compound: "CC(C)CCC[C@@H](C)[C@H]1CC[C@H]2C3=C[C@@H]4O[C@@]45C[C@@H](O)CC[C@]5(C)[C@H]3CC[C@]12C"
  reported: "inactive"
- compound: "NCCc1c[nH]cn1 [HISTAMINE]"
  reported: "inactive"
- compound: "CC[C@H](CC[C@@H](C)[C@H]1CC[C@H]2[C@@H]3C[C@@H](NCCc4c[nH]cn4)[C@@]4(O)C[C@@H](O)CC[C@]4(C)[C@H]3CC[C@]12C)C(C)C"
  reported: "50 um"
- compound: "CC(C)CCC[C@@H](C)[C@H]1CC[C@H]2C3=C[C@@H](NCCCCN)[C@@]4(O)C[C@@H](O)CC[C@]4(C)[C@H]3CC[C@]12C"
  reported: "50 um"

----------
# Test system: U-937
# protocol description: Induction of dendrite out growth in IL-4/GMCSF-stimulated human U937 cells assessed as dendrite length at 100 nM after 48 hrs by light microscopy
# Assay type: functional
Activity calls are given as the source filed them. No cut-off for these calls is given here.

- smiles representation: "CC(C)CCC[C@@H](C)[C@H]1CC[C@H]2[C@@H]3C[C@@H]4O[C@@]45C[C@@H](O)CC[C@]5(C)[C@H]3CC[C@]12C"
  tgt: "U-937"
  Activity: "inactive"
- smiles representation: "CC(C)CCC[C@@H](C)[C@H]1CC[C@H]2[C@@H]3C[C@H]4O[C@]45C[C@@H](O)CC[C@]5(C)[C@H]3CC[C@]12C"
  tgt: "U-937"
  Activity: "inactive"
- smiles representation: "CC(C)CCC[C@@H](C)[C@H]1CC[C@H]2C3=C[C@@H](NCCCCNCCCN)[C@@]4(O)C[C@@H](O)CC[C@]4(C)[C@H]3CC[C@]12C"
  tgt: "U-937"
  Activity: "<5 um"
- smiles representation: "NCCCCNCCCN"
  tgt: "U-937"
  Activity: "inactive"
- smiles representation: "CC(C)CCC[C@@H](C)[C@H]1CC[C@H]2[C@@H]3C[C@@H](NCCCNCCCCN)[C@@]4(O)C[C@@H](O)CC[C@]4(C)[C@H]3CC[C@]12C"
  tgt: "U-937"
  Activity: "<5 um"
- smiles representation: "C[C@]12CC[C@H]3[C@@H](C[C@@H]4O[C@@]45C[C@@H](O)CC[C@]35C)[C@@H]1CC[C@@H]2O"
  tgt: "U-937"
  Activity: "inactive"
- smiles representation: "NCCc1c[nH]cn1"
  tgt: "U-937"
  Activity: "inactive"
- smiles representation: "CC(C)CCC[C@@H](C)[C@H]1CC[C@H]2C3=C[C@@H](NCCCCN)[C@@]4(O)C[C@@H](O)CC[C@]4(C)[C@H]3CC[C@]12C"
  tgt: "U-937"
  Activity: "5 um"
- smiles representation: "CC(C)CCC[C@@H](C)[C@H]1CC[C@H]2C3=C[C@@H](NCCc4c[nH]cn4)[C@@]4(O)C[C@@H](O)CC[C@]4(C)[C@H]3CC[C@]12C"
  tgt: "U-937"
  Activity: "<5 um"
- smiles representation: "CC(C)CCC[C@@H](C)[C@H]1CC[C@H]2C3=C[C@@H](NCCCNCCCCN)[C@@]4(O)C[C@@H](O)CC[C@]4(C)[C@H]3CC[C@]12C"
  tgt: "U-937"
  Activity: "<5 um"
- smiles representation: "CC(C)CCC[C@@H](C)[C@H]1CC[C@H]2[C@@H]3CC=C4C[C@@H](O)CC[C@]4(C)[C@H]3CC[C@]12C"
  tgt: "U-937"
  Activity: "inactive"
- smiles representation: "CCCC(=O)O[C@H]1CC[C@]2(C)[C@H]3CC[C@]4(C)[C@@H]([C@H](C)CCCC(C)C)CC[C@H]4[C@@H]3C[C@@H](NCCc3c[nH]cn3)[C@@]2(O)C1"
  tgt: "U-937"
  Activity: "inactive"
- smiles representation: "C[C@]12CC[C@H]3[C@@H](C[C@@H](NCCc4c[nH]cn4)[C@@]4(O)C[C@@H](O)CC[C@]34C)[C@@H]1CC[C@@H]2O"
  tgt: "U-937"
  Activity: "inactive"

----------
# Test system: P19
# protocol description: Cytotoxicity against mouse P19 cells after 3 days by trypan blue exclusion assay
# Assay type: functional, cell-based
# experimental setup: Mus musculus, P19, 72 h; read-out: IC50
pIC50: −log10 of the molar value.

- smiles representation: "CC(C)CCC[C@@H](C)[C@H]1CC[C@H]2[C@@H]3C[C@@H](n4cnc(CCN)c4)[C@@]4(O)C[C@@H](O)CC[C@]4(C)[C@H]3CC[C@]12C"
  pIC50: 5.05
- smiles representation: "CC(=O)O[C@H]1CC[C@]2(C)[C@H]3CC[C@]4(C)[C@@H]([C@H](C)CCCC(C)C)CC[C@H]4[C@@H]3C[C@@H](NCCc3c[nH]cn3)[C@@]2(O)C1"
  pIC50: 5.60
- smiles representation: "CC(C)CCC[C@@H](C)[C@H]1CC[C@H]2C3=C[C@@H](NCCc4c[nH]cn4)[C@@]4(O)C[C@@H](O)CC[C@]4(C)[C@H]3CC[C@]12C"
  pIC50: 5.28
- smiles representation: "CC[C@H](CC[C@@H](C)[C@H]1CC[C@H]2[C@@H]3C[C@@H](NCCc4c[nH]cn4)[C@@]4(O)C[C@@H](O)CC[C@]4(C)[C@H]3CC[C@]12C)C(C)C"
  pIC50: 5.60
- smiles representation: "CC(C)CCC[C@@H](C)[C@H]1CC[C@H]2C3=C[C@@H](NCCCCN)[C@@]4(O)C[C@@H](O)CC[C@]4(C)[C@H]3CC[C@]12C"
  pIC50: 5.55
- smiles representation: "CC(C)CCC[C@@H](C)[C@H]1CC[C@H]2[C@@H]3C[C@@H](NCCCCN)[C@@]4(O)C[C@@H](O)CC[C@]4(C)[C@H]3CC[C@]12C"
  pIC50: 5.59

----------
# Test system: A549
# protocol description: Cytotoxicity against human A549 cells after 72 hrs by trypan blue exclusion assay
# Assay type: functional, cell-based
# experimental setup: A549, 72 h
pIC50: −log10 of the molar value.

- smiles representation: "CC(C)CCC[C@@H](C)[C@H]1CC[C@H]2[C@@H]3C[C@@H](NCCc4cnc[nH]4)[C@@]4(O)C[C@@H](O)CC[C@]4(C)[C@H]3CC[C@]12C"
  pIC50: 5.59

----------
# Tested on: U-937
# protocol description: Induction of dendrite out growth in IL-4/GMCSF-stimulated human U937 cells assessed as dendrite length at 100 nM after 48 hrs by light microscopy
# Assay type: functional
readout kind: Activity

- smiles representation: "CC(C)CCC[C@@H](C)[C@H]1CC[C@H]2[C@@H]3C[C@@H](NCCCCNCCCN)[C@@]4(O)C[C@@H](O)CC[C@]4(C)[C@H]3CC[C@]12C"
  reported: "<5 um"
- smiles representation: "CC(C)CCC[C@@H](C)[C@H]1CC[C@H]2[C@@H]3C[C@@H](n4cnc(CCN)c4)[C@@]4(O)C[C@@H](O)CC[C@]4(C)[C@H]3CC[C@]12C"
  reported: "<5 um"
